system: GOTO (Neuroblastoma); experiment: combination Emax (second highest fraction inhibited in the dose matrix, 72 h); higher = more inhibition; extreme values may be limits of the assay
OBSERVABLE: combination Emax
Number, no unit, nothing else.

# query: combination Emax | item Cc1c2c(nn1C)CSCc1cc(n(C)n1)CSc1cc(c3ccccc3c1)OCCCc1c(C(=O)O)n(C)c3c-2c(Cl)ccc13 [AZD5991] + CN(C)CCCOc1ccc(-c2ccc3ncc4c(c3c2)n(C2CCOCC2)c(=O)n4C)cn1 [AZD0156] (first compound max 1 µM, 7x7, partner max 1 µM) | system: GOTO (Neuroblastoma)
0.757

What do you get for CC(=O)c1c(C)c2cnc(Nc3ccc(N4CCNCC4)cn3)nc2n(C2CCCC2)c1=O [Palbociclib] + Cn1cnc2c(F)c(Nc3ccc(Br)cc3Cl)c(C(=O)NOCCO)cc21 [Selumetinib] (first compound max 10 µM, 7x7, partner max 10 µM) ?
0.819

What do you get for CN(C)CCCOc1ccc(-c2ccc3ncc4c(c3c2)n(C2CCOCC2)c(=O)n4C)cn1 [AZD0156] + C=CCn1c(=O)c2cnc(Nc3ccc(N4CCN(C)CC4)cc3)nc2n1-c1cccc(C(C)(C)O)n1 [AZD1775] (first compound max 1 µM, partner max 1 µM) ?
0.865

What do you get for CN(C)CCCOc1ccc(-c2ccc3ncc4c(c3c2)n(C2CCOCC2)c(=O)n4C)cn1 [AZD0156] + C[C@@H]1COCCN1C2=NC(=NC(=C2)C3(CC3)[S@](=N)(=O)C)C4=C5C=CNC5=NC=C4 [AZD6738] (first compound max 1 µM, 7x7, partner max 10 µM) ?
0.913

What do you get for CN(CCO)CC[C@H](CSc1ccccc1)Nc1ccc(S(=O)(=O)NC(=O)c2ccc(N3CCC([C@@H](O)c4ccccc4-c4ccc(Cl)cc4)CC3)cc2)cc1S(=O)(=O)C(F)(F)F [AZD4320] + C[C@@H]1COCCN1C2=NC(=NC(=C2)C3(CC3)[S@](=N)(=O)C)C4=C5C=CNC5=NC=C4 [AZD6738] (first compound max 1 µM, 7x7, partner max 10 µM) ?
0.909

What do you get for Cc1nc(Nc2ncc(C(=O)Nc3c(C)cccc3Cl)s2)cc(N2CCN(CCO)CC2)n1 [Dasatinib] + CC(=O)Nc1cccc(-n2c(=O)n(C3CC3)c(=O)c3c(Nc4ccc(I)cc4F)n(C)c(=O)c(C)c32)c1 [Trametinib] (first compound max 2 µM, 7x7, partner max 1 µM) ?
0.398

What do you get for Cc1c2c(nn1C)CSCc1cc(n(C)n1)CSc1cc(c3ccccc3c1)OCCCc1c(C(=O)O)n(C)c3c-2c(Cl)ccc13 [AZD5991] + C[C@@H](Nc1cc(F)cc(F)c1)c1cc(C(=O)N(C)C)cc2c(=O)cc(N3CCOCC3)oc12 [AZD8186] (first compound max 1 µM, 7x7, partner max 3 µM) ?
0.654

What do you get for C[C@@H](c1ccc2nccn2c1)n1nnc2ncc(-c3cnn(C)c3)nc21 [Savolitinib] + CN(CC[C@H](CSC1=CC=CC=C1)NC2=C(C=C(C=C2)S(=O)(=O)NC(=O)C3=CC=C(C=C3)N4CCC(CC4)[C@H](C5=CC=CC=C5C6=CC=C(C=C6)Cl)O)S(=O)(=O)C(F)(F)F)CCO [AZD4320] (first compound max 1 µM, 7x7, partner max 1 µM) ?
0.495

What do you get for CCN(CCO)CCCOc1ccc2c(Nc3cc(CC(=O)Nc4cccc(F)c4)[nH]n3)ncnc2c1 [AZD2811] + C=CCn1c(=O)c2cnc(Nc3ccc(N4CCN(C)CC4)cc3)nc2n1-c1cccc(C(C)(C)O)n1 [AZD1775] (first compound max 1 µM, partner max 1 µM) ?
0.883

What do you get for COc1cccc(OCCCN)c1-c1cc(Nc2cnc(C#N)cn2)n[nH]1 [Prexasertib] + C=CCn1c(=O)c2cnc(Nc3ccc(N4CCN(C)CC4)cc3)nc2n1-c1cccc(C(C)(C)O)n1 [AZD1775] (first compound max 1 µM, partner max 1 µM) ?
0.905

What do you get for NC1(C(=O)N[C@@H](CCO)c2ccc(Cl)cc2)CCN(c2ncnc3[nH]ccc23)CC1 [Capivasertib] + CC(C)n1c(=O)n(C)c2cnc3cc(F)c(-c4ccc(OCCCN5CCCCC5)nc4)cc3c21 [AZD1390] (first compound max 10 µM, 7x7, partner max 0.3 µM) ?
0.433

What do you get for COc1cccc2c1C(=O)c1c(O)c3c(c(O)c1C2=O)C[C@@](O)(C(=O)CO)C[C@@H]3O[C@H]1C[C@H](N)[C@H](O)[C@H](C)O1 [Doxorubicin] + Cc1cc2ncnn2cc1Nc1ncc2c(n1)n(C1CCOCC1)c(=O)n2C [AZD7648] (first compound max 1 µM, 7x7, partner max 10 µM) ?
0.816

What do you get for Cc1c2c(nn1C)CSCc1cc(n(C)n1)CSc1cc(c3ccccc3c1)OCCCc1c(C(=O)O)n(C)c3c-2c(Cl)ccc13 [AZD5991] + C=CCn1c(=O)c2cnc(Nc3ccc(N4CCN(C)CC4)cc3)nc2n1-c1cccc(C(C)(C)O)n1 [AZD1775] (first compound max 1 µM, partner max 1 µM) ?
0.834
